Test: basal 3T3-L1 adipocyte mitochondrial potential changes, profiling panel, cell-based, JC-1 fluorescence, 3T3-L1 adipocytes, 24 h, 100 nL compound (AID 1168); also: test concentration not given here
Conditions: JC-1 mitochondrial fluorescence, higher = more signal, called active from +8 up or from −8 down
Please use met whenever z-score is not below -0.6, and not met whenever it is.

Some entries whose results are on file:
{"compound": "N#Cc1ccc(NN2C(C(O)C3CCCCC3)C=CC3C(=O)N(c4ccccc4)C(=O)C32)cc1 (stereo not drawn)", "group": "not met"}
{"compound": "C[C@H]1NC(=O)[C@H](Cc2ccccc2)NC(=O)[C@@]23C(=O)N[C@@H](Cc4ccccc4)C2[C@H](C)[C@@]2(C)O[C@H]2C3/C=C/C/C=C\\CNC1=O (stereo partly drawn)", "group": "met"}
{"compound": "[N-]=[N+]=Nc1ccccc1C[C@]1(C(=O)NCCN2CCOCC2)N=C(c2ccc(OCCCO)cc2)O[C@H]1c1ccccc1", "group": "met"}

Problem: z-score >= -0.6 for Cc1ccc([C@H]2C(C(=O)O)=C[C@@H](C)N2S(=O)(=O)c2ccc(C)cc2)cc1 ?
Solution: not met

Problem: Another: Cc1c(NC(=O)CC#N)c(=O)n(-c2ccccc2)n1C
Solution: met

Problem: Another: C=CCC(OC(C)=O)[C@@H]1[C@@H](N(Cc2cccc3ccccc23)C(=O)c2cccc3ccccc23)c2cc(OCCCO)ccc2N1C(=O)c1ccc2ccccc2n1 (stereo partly drawn)
Solution: not met

Problem: Another: CC1CC/C=C\[C@H]2OC34C=CCN(Cc5ccccc5)C(=O)[C@H]3N(CCCCCO)C(=O)[C@@H]4C2C(=O)O1 (stereo partly drawn)
Solution: met

Problem: Another: Cc1ccc(F)cc1S(=O)(=O)N[C@@H]1CCN(Cc2ccc(-c3ccccc3)cc2)C1
Solution: met

The origin of these recorded values is PubChem BioAssay.
